Listed here are sequences together with their documented PBM binding z-score.
# System: RARa:RXR (NR concentration 270 nM, RXRa partner concentration 90 nM)
# assayOverview: PBM binding z-score (relative to random genomic background probes); higher = stronger binding; sequences stand for … in GC…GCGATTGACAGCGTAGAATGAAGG

These recorded examples may help you get a feel for the data.
INSERT INTO results (orderedresidues, reportedendpoint, val) VALUES
  ('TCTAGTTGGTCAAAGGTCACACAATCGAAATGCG', 'PBM binding z-score', 7.76),
  ('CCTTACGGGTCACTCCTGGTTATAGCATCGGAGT', 'PBM binding z-score', 3.18),
  ('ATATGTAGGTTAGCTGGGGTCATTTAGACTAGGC', 'PBM binding z-score', 5.08),
  ('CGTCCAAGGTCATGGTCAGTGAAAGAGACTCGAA', 'PBM binding z-score', 4.83),
  ('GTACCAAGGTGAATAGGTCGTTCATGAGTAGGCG', 'PBM binding z-score', 1.62);

Item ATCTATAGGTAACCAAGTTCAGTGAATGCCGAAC with RARa:RXR (NR concentration 270 nM, RXRa partner concentration 90 nM) - PBM binding z-score? 0.857

Item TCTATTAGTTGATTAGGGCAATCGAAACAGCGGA with RARa:RXR (NR concentration 270 nM, RXRa partner concentration 90 nM) - PBM binding z-score? 0.781

Item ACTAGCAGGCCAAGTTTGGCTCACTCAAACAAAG with RARa:RXR (NR concentration 270 nM, RXRa partner concentration 90 nM) - PBM binding z-score? -0.454
